This collection of values is drawn from patent US6613747B2.

Provide the reported MIC of each item.
# System: H. influenzae ATCC49247
# Protocol Notes: MIC, microdilution broth method (NCCLS)
# Assay type: cell-based
# Condition Description: E: H. influenzae ATCC49247, 35° C., 16-20 hours
# Protocol: Minimal inhibitory concentration (MIC) has been an indicator of in vitro antibacterial activity widely used in the art. The in vitro antimicrobial activity of the compounds was determined by the microdilution broth method following the test method from the National Committee for Clinical Laboratory Standards (NCCLS). […] Following inoculation of the microdilution trays, the trays are incubated at 35° C. for 16-20 hours and then read. […]
Supply the numeric figure in µg/mL, leaving out any unit text.

QUERY: Return MIC for the following compound: CCC1OC(=O)C(C)(F)C(=O)C(C)C(OC2OC(C)CC(N(C)C)C2O)C(C)(OC(=O)NCC=Cc2ccc(-c3cnccn3)cc2)CC(C)C(=O)C(C)C2NC(=O)OC12C (centres unmarked) [Compound 101]
RESULT: 2

QUERY: Return MIC for the following compound: CC[C@H]1OC(=O)[C@H](C)C(=O)[C@H](C)[C@@H](O[C@@H]2O[C@H](C)C[C@H](N(C)C)[C@H]2O)[C@](C)(OC(=O)NCc2ccc(-c3ccccn3)s2)C[C@@H](C)C(=O)[C@H](C)[C@H]2NC(=O)O[C@@]21C [Compound 56]
RESULT: 2

QUERY: Return MIC for the following compound: CC[C@H]1OC(=O)[C@H](C)C(=O)[C@H](C)[C@@H](O[C@@H]2O[C@H](C)C[C@H](N(C)C)[C@H]2O)[C@](C)(OC(=O)NC/C=C/c2ccc(-c3nccc(OC)n3)cc2)C[C@@H](C)C(=O)[C@H](C)[C@H]2NC(=O)O[C@@]21C [Compound 71]
RESULT: 4

QUERY: Return MIC for the following compound: CC[C@H]1OC(=O)[C@H](C)C(=O)[C@H](C)[C@@H](O[C@@H]2O[C@H](C)C[C@H](N(C)C)[C@H]2O)[C@](C)(OC(=O)NCCN(C)Cc2cnc3ccccc3c2)C[C@@H](C)C(=O)[C@H](C)[C@H]2NC(=O)O[C@@]21C [Compound 119]
RESULT: 8

QUERY: Return MIC for the following compound: CCC1OC(=O)C(C)(F)C(=O)C(C)C(OC2OC(C)CC(N(C)C)C2O)C(C)(OC(=O)NCC=Cc2ccc(-n3cccn3)cc2)CC(C)C(=O)C(C)C2NC(=O)OC12C (centres unmarked) [Compound 91]
RESULT: 4

QUERY: Return MIC for the following compound: CC[C@H]1OC(=O)[C@H](C)C(=O)[C@H](C)[C@@H](O[C@@H]2O[C@H](C)C[C@H](N(C)C)[C@H]2O)[C@](C)(OC(=O)NC/C=C/c2cccc3cccnc23)C[C@@H](C)C(=O)[C@H](C)[C@H]2NC(=O)O[C@@]21C [Compound 46]
RESULT: 2

QUERY: Return MIC for the following compound: CC[C@H]1OC(=O)[C@H](C)C(=O)[C@H](C)[C@@H](O[C@@H]2O[C@H](C)C[C@H](N(C)C)[C@H]2O)[C@](C)(OC(=O)NC/C=C/c2ccc(-c3ncccn3)cc2)C[C@@H](C)C(=NO)[C@H](C)[C@H]2NC(=O)O[C@@]21C [Compound 133]
RESULT: 2

QUERY: Return MIC for the following compound: CC[C@H]1OC(=O)[C@H](C)C(=O)[C@H](C)[C@@H](O[C@@H]2O[C@H](C)C[C@H](N(C)C)[C@H]2O)[C@](C)(OC(=O)NC/C=C/C=C/c2cccc(-n3cncn3)n2)C[C@@H](C)C(=O)[C@H](C)[C@H]2NC(=O)O[C@@]21C [Compound 50]
RESULT: 2

---

# Tested on: H. influenzae ATCC49247
# Protocol Notes: MIC, microdilution broth method (NCCLS)
# Type: cell-based
# Condition Description: E: H. influenzae ATCC49247, 35° C., 16-20 hours
Measured Parameter: MIC (µg/mL)
Supply the numeric figure in µg/mL, leaving out any unit text.

QUERY: Return MIC for the following compound: CC[C@H]1OC(=O)[C@H](C)C(=O)[C@H](C)[C@@H](O[C@@H]2O[C@H](C)C[C@H](N(C)C)[C@H]2O)[C@](C)(OC(=O)NCCCc2cccnc2)C[C@@H](C)C(=O)[C@H](C)[C@H]2NC(=O)O[C@@]21C
RESULT: 4

---

# System: H. influenzae ATCC49247
# Protocol Notes: MIC, microdilution broth method (NCCLS)
# Format: cell-based
# Condition Description: E: H. influenzae ATCC49247, 35° C., 16-20 hours
Provide the reported MIC of each item.
Supply the numeric figure in µg/mL, leaving out any unit text.

QUERY: Return MIC for the following molecule: CC[C@H]1OC(=O)[C@H](C)C(=O)[C@H](C)[C@@H](O[C@@H]2O[C@H](C)C[C@H](N(C)C)[C@H]2O)[C@](C)(OC(=O)NCCN)C[C@@H](C)C(=O)[C@H](C)[C@H]2NC(=O)O[C@@]21C
RESULT: 16

QUERY: Return MIC for the following molecule: CC[C@H]1OC(=O)[C@H](C)C(=O)[C@H](C)[C@@H](O[C@@H]2O[C@H](C)C[C@H](N(C)C)[C@H]2O)[C@](C)(OC(=O)NC/C=C/c2ccc(-c3ccnn3C)cc2)C[C@@H](C)C(=O)[C@H](C)[C@H]2NC(=O)O[C@@]21C
RESULT: 2

QUERY: Return MIC for the following molecule: CC[C@H]1OC(=O)[C@H](C)C(=O)[C@H](C)[C@@H](O[C@@H]2O[C@H](C)C[C@H](N(C)C)[C@H]2O)[C@](C)(OC(=O)NC/C=C/c2ccc(-n3cccn3)c(OC)c2)C[C@@H](C)C(=O)[C@H](C)[C@H]2NC(=O)O[C@@]21C
RESULT: 4

QUERY: Return MIC for the following molecule: CC[C@H]1OC(=O)[C@H](C)C(=O)[C@H](C)[C@@H](O[C@@H]2O[C@H](C)C[C@H](N(C)C)[C@H]2O)[C@](C)(OC(=O)NC/C=C/c2ccc(-n3cc(C)cn3)cc2)C[C@@H](C)C(=O)[C@H](C)[C@H]2NC(=O)O[C@@]21C
RESULT: 4

---

Provide the reported MIC of each item.
# System: E. coli OC2605
# Protocol Notes: MIC, microdilution broth method (NCCLS)
# Assay type: cell-based
# Condition Description: A: E. coli OC2605, 35° C., 16-20 hours
Supply the numeric figure in µg/mL, leaving out any unit text.

QUERY: Report its MIC with E. coli OC2605 as the test system: CC[C@H]1OC(=O)[C@H](C)C(=O)[C@H](C)[C@@H](O[C@@H]2O[C@H](C)C[C@H](N(C)C)[C@H]2O)[C@](C)(OC(=O)NC/C=C/c2ccc(Br)cc2)C[C@@H](C)C(=O)[C@H](C)[C@H]2NC(=O)O[C@@]21C
RESULT: 8

QUERY: Report its MIC with E. coli OC2605 as the test system: CC[C@H]1OC(=O)[C@H](C)C(=O)[C@H](C)[C@@H](O[C@@H]2O[C@H](C)C[C@H](N(C)C)[C@H]2O)[C@](C)(OC(=O)NC/C=C/c2ccc(Br)nc2)C[C@@H](C)C(=O)[C@H](C)[C@H]2NC(=O)O[C@@]21C
RESULT: 8

---

Provide the reported MIC of each item.
# System: E. faecalis ATCC29212
# Protocol Notes: MIC, microdilution broth method (NCCLS)
# Format: cell-based
# Condition Description: C: E. faecalis ATCC29212, 35° C., 16-20 hours
Supply the numeric figure in µg/mL, leaving out any unit text.

QUERY: Report its MIC with E. faecalis ATCC29212 as the test system: CC[C@H]1OC(=O)[C@H](C)C(=O)[C@H](C)[C@@H](O[C@@H]2O[C@H](C)C[C@H](N(C)C)[C@H]2OC(C)=O)[C@](C)(OC(=O)NC/C=C/c2ccc(-c3ncccn3)cc2)C[C@@H](C)C(=O)[C@H](C)[C@H]2NC(=O)O[C@@]21C
RESULT: 0.12

QUERY: Report its MIC with E. faecalis ATCC29212 as the test system: CC[C@H]1OC(=O)[C@H](C)C(=O)[C@H](C)[C@@H](O[C@@H]2O[C@H](C)C[C@H](N(C)C)[C@H]2O)[C@](C)(OC(=O)NC/C=C/c2cnn(-c3ccccc3)c2)C[C@@H](C)C(=O)[C@H](C)[C@H]2NC(=O)O[C@@]21C
RESULT: 0.12

QUERY: Report its MIC with E. faecalis ATCC29212 as the test system: CC[C@H]1OC(=O)[C@H](C)C(=O)[C@H](C)[C@@H](O[C@@H]2O[C@H](C)C[C@H](N(C)C)[C@H]2O)[C@](C)(OC(=O)NCCCCc2ccccc2)C[C@@H](C)C(=O)[C@H](C)[C@H]2NC(=O)O[C@@]21C
RESULT: 0.25

QUERY: Report its MIC with E. faecalis ATCC29212 as the test system: CC[C@H]1OC(=O)[C@H](C)C(=O)[C@H](C)[C@@H](O[C@@H]2O[C@H](C)C[C@H](N(C)C)[C@H]2O)[C@](C)(OC(=O)NCc2ccc(-c3ccc([N+](=O)[O-])cn3)cc2)C[C@@H](C)C(=O)[C@H](C)[C@H]2NC(=O)O[C@@]21C
RESULT: 0.12

QUERY: Report its MIC with E. faecalis ATCC29212 as the test system: CC[C@H]1OC(=O)[C@H](C)C(=O)[C@H](C)[C@@H](O[C@@H]2O[C@H](C)C[C@H](N(C)C)[C@H]2O)[C@](C)(OC(=O)NC/C=C/c2ccc(-c3ccnn3C)cc2)C[C@@H](C)C(=O)[C@H](C)[C@H]2NC(=O)O[C@@]21C
RESULT: 0.12

QUERY: Report its MIC with E. faecalis ATCC29212 as the test system: CC[C@H]1OC(=O)[C@H](C)C(=O)[C@H](C)[C@@H](O[C@@H]2O[C@H](C)C[C@H](N(C)C)[C@H]2O)[C@](C)(OC(=O)NC/C=C/c2ccncc2)C[C@@H](C)C(=O)[C@H](C)[C@H]2NC(=O)O[C@@]21C
RESULT: 0.12

QUERY: Report its MIC with E. faecalis ATCC29212 as the test system: CC[C@H]1OC(=O)[C@H](C)C(=O)[C@H](C)[C@@H](O[C@@H]2O[C@H](C)C[C@H](N(C)C)[C@H]2O)[C@](C)(OC(=O)NCc2ccc(-c3cc[nH]n3)cc2)C[C@@H](C)C(=O)[C@H](C)[C@H]2NC(=O)O[C@@]21C
RESULT: 0.12

QUERY: Report its MIC with E. faecalis ATCC29212 as the test system: CC[C@H]1OC(=O)[C@H](C)C(=O)[C@H](C)[C@@H](O[C@@H]2O[C@H](C)C[C@H](N(C)C)[C@H]2O)[C@](C)(OC(=O)NCc2ccc(-c3cccnn3)cc2)C[C@@H](C)C(=O)[C@H](C)[C@H]2NC(=O)O[C@@]21C
RESULT: 0.06

QUERY: Report its MIC with E. faecalis ATCC29212 as the test system: CC[C@H]1OC(=O)[C@H](C)C(=O)[C@H](C)[C@@H](O[C@@H]2O[C@H](C)C[C@H](N(C)C)[C@H]2O)[C@](C)(OC(=O)NC/C=C/c2ccc(-n3ccnn3)cc2)C[C@@H](C)C(=O)[C@H](C)[C@H]2NC(=O)O[C@@]21C
RESULT: 0.06

QUERY: Report its MIC with E. faecalis ATCC29212 as the test system: CC[C@H]1OC(=O)[C@H](C)C(=O)[C@H](C)[C@@H](O[C@@H]2O[C@H](C)C[C@H](N(C)C)[C@H]2O)[C@](C)(OC(=O)NC/C=C/c2ccnc3ccccc23)C[C@@H](C)C(=O)[C@H](C)[C@H]2NC(=O)O[C@@]21C
RESULT: 0.06

QUERY: Report its MIC with E. faecalis ATCC29212 as the test system: CCC1OC(=O)C(C)(F)C(=O)C(C)C(OC2OC(C)CC(N(C)C)C2O)C(C)(OC(=O)NCC=Cc2ccc(-c3cccnn3)cc2)CC(C)C(=O)C(C)C2NC(=O)OC12C (stereo not shown)
RESULT: 0.12

QUERY: Report its MIC with E. faecalis ATCC29212 as the test system: CC[C@H]1OC(=O)[C@H](C)C(=O)[C@H](C)[C@@H](O[C@@H]2O[C@H](C)C[C@H](N(C)C)[C@H]2O)[C@](C)(OC(=O)NC/C=C/c2cccc(-n3cncn3)n2)C[C@@H](C)C(=O)[C@H](C)[C@H]2NC(=O)O[C@@]21C
RESULT: 0.12

QUERY: Report its MIC with E. faecalis ATCC29212 as the test system: CC[C@H]1OC(=O)[C@H](C)C(=O)[C@H](C)[C@@H](O[C@@H]2O[C@H](C)C[C@H](N(C)C)[C@H]2O)[C@](C)(OC(=O)NCc2ccc(-c3cnccn3)cc2)C[C@@H](C)C(=O)[C@H](C)[C@H]2NC(=O)O[C@@]21C
RESULT: 0.06

QUERY: Report its MIC with E. faecalis ATCC29212 as the test system: CC[C@H]1OC(=O)[C@H](C)C(=O)[C@H](C)[C@@H](O[C@@H]2O[C@H](C)C[C@H](N(C)C)[C@H]2O)[C@](C)(OC(=O)NCc2ccc(-c3cncnc3)cc2)C[C@@H](C)C(=O)[C@H](C)[C@H]2NC(=O)O[C@@]21C
RESULT: 0.06

QUERY: Report its MIC with E. faecalis ATCC29212 as the test system: CC[C@H]1OC(=O)[C@H](C)C(=O)[C@H](C)[C@@H](O[C@@H]2O[C@H](C)C[C@H](N(C)C)[C@H]2O)[C@](C)(OC(=O)NC/C=C/c2cccc3cccnc23)C[C@@H](C)C(=O)[C@H](C)[C@H]2NC(=O)O[C@@]21C
RESULT: 0.06

QUERY: Report its MIC with E. faecalis ATCC29212 as the test system: CC[C@H]1OC(=O)[C@H](C)C(=O)[C@H](C)[C@@H](O[C@@H]2O[C@H](C)C[C@H](N(C)C)[C@H]2O)[C@](C)(OC(=O)NC/C=C/c2ccc3nccnc3c2)C[C@@H](C)C(=O)[C@H](C)[C@H]2NC(=O)O[C@@]21C
RESULT: 0.12
